Tested on: T-47D breast
Assay: NCI tumour cell line growth inhibition, 48 h
measuredEndpoint: TGI

Would you kindly share the measured TGI for C=C(C)C12CC(COC(=O)c3ccccc3)C34OC5(OC1C3C1OC1(CO)C(O)C1(O)C(OC(=O)c3ccccc3)C(C)C(C(C)CCCCCCC5O)C14)O2 (centres undefined) ?
> 100 µM

What measured TGI goes with `O=C(Nc1ccc(N2CCNCC2)cc1)c1[nH]ncc1Nc1cc(Oc2ccccc2)ncn1` ?
8.09 µM

State the recorded TGI for this entry: `O=C(O)c1c2c(cc3c1CC1(Cc4ccccc4C1)C3)CCC2`
> 100 µM

For the molecule shown here, `O=C1c2cccc(NCCN=Cc3cc(O)ccc3O)c2C(=O)c2c(NCCN=Cc3cc(O)ccc3O)cccc21` , give the reported TGI.
7.35 µM

Can you share its TGI? I mean this molecule: `CCOc1cccc(/C=N/NC(=O)c2ccccc2Nc2ccnc(C(F)(F)F)c2)c1O`
37.5 µM

Looking for the measured TGI of `CC[C@]1(Cc2ccc(OC)c(OC)c2)CN(S(=O)(=O)c2ccc(C)cc2)C[C@@H]1OC(C)=O` , can you help?
> 100 µM

Record request: TGI value, item `CC(C)Sc1nc(C#N)cc2c1CCCC2`
> 100 µM

Which TGI value belongs to O=C(CCCCCCCCC(=O)NN1C(=O)/C(=C\c2ccc(O)c(O)c2)SC1c1ccc(Cl)cc1)NN1C(=O)/C(=C\c2ccc(O)c(O)c2)SC1c1ccc(Cl)cc1 (centres undefined) ?
> 100 µM

Tell me the measured TGI of OCC1CCCCCCCCCCC12SCCCS2 (centres undefined) , please.
> 100 µM

This collection of values is drawn from PubChem BioAssay (NCI).
